Each item that follows carries a reported IC50.
# Tested on: SMMC-7721
# assay.info: Cytotoxicity against human SMMC7721 cells after 48 hrs by MTT assay
# Assay type: functional, cell-based

# structure, IC50
rows = [
    ("CC[C@]12C=CCN3CCc4c(n(c5ccccc45)[C@@H](OC)C1)[C@@H]32", "22.1 µmol"),
    ("COC(=O)[C@@H]1C[C@@]23C=CCN4CC[C@@]5(c6ccccc6N[C@]15[C@@H]2C)[C@@H]43", "20.7 µmol"),
    ("CCC1=C[C@@H]2CN(C1)Cc1c([nH]c3ccccc13)[C@@](C(=O)OC)(c1cc3c(cc1OC)N(C)[C@H]1[C@@](O)(C(=O)OC)[C@H](OC(C)=O)[C@]4(CC)C=CCN5CC[C@]31[C@@H]54)C2", "4.7 µmol"),
    ("CC[C@]12C=CCN3CC[C@]4(C(=C(C(=O)OC)C1)Nc1cc5c(cc14)[C@@H]1[C@H](O5)[C@@H](O)[C@@]4(CC)CC(C(=O)OC)=C5Nc6ccccc6[C@@]56CCN1[C@@H]46)[C@@H]32", "3 µmol"),
    ("CC[C@]12C=CCN3CC[C@]4(C(=C(C(=O)OC)C1)Nc1cc(OC)ccc14)[C@@H]32", "13.1 µmol"),
    ("CC[C@]12C=CCN3CCc4c(n(c5ccccc45)[C@@H](c4ccc5c(c4)[C@@]46CCN7CC=C[C@@]8(C[C@@H](C(=O)OC)[C@]4(N5)[C@@H]8C)[C@H]76)C1)[C@@H]32", "3.2 µmol"),
]

Cited source for all entries: ChEMBL document CHEMBL1165931
